# protein stability index per entry
B1: VENTX (parent)
chain: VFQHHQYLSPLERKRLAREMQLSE

- Variants of: B1
- experiment.summary: protein stability index of a GFP-peptide fusion (GPS, HEK-293T) (PSI 1-6); higher = more stable;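 further: lentivirally expressed fusions sorted by FACS into six bins by GFP to DsRed ratio, PSI derived from sequencing read proportions per bin multiplied by bin number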
- measurement.conditions: c terminus: a fixed tail appended
Number only, please.

Here's what some known entries look like.
H4T = 3.06
S9I = 1.69

Endpoint output: protein stability index of H4Q . Value?
3.5

Consider the variant H4N and give its measured protein stability index.
2.85

Fill in: protein stability index of Y7F is ___
2.99

Sample L11N — what was its protein stability index?
3.2

Which protein stability index is listed for Q21P ?
2.64

Consider the variant shown here: Q3R What is its recorded protein stability index?
2.17

protein stability index for R13I ?
2.26

Find the recorded protein stability index belonging to E19K and report it.
1.94

Recorded protein stability index for K14S , please?
2.81

Fill blank: measured protein stability index of the variant F2C is ____.
3.08

Entry Q3S has what protein stability index?
3.81

Using the record for E19N , report its protein stability index.
3.28

Please look up its protein stability index: P10C
2.32
